system.name: Alpha-2A adrenergic receptor (Homo sapiens); further: assay procedure not described here
Sequence (P08913 whole entry): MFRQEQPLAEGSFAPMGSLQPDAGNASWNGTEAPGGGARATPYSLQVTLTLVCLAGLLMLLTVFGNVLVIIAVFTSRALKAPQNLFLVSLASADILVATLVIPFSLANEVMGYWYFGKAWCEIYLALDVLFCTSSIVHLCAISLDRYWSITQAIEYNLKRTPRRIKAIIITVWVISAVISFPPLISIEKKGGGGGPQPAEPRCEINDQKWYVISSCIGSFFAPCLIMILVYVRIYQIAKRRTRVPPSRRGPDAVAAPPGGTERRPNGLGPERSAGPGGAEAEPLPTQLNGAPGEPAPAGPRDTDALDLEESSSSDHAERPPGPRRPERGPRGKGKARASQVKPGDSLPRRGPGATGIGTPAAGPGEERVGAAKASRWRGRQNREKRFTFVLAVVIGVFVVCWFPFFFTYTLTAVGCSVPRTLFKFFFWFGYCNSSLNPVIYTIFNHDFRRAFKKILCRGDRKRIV
observable: AC50

Example results:
>  <compound>
CCCCCCO[C@@H](C)c1cccc(-c2csc(NC(=O)c3cc(Cl)c(/C=C(\C)C(=O)O)c(Cl)c3)n2)c1OC

>  <system.name>
Alpha-2A adrenergic receptor (Homo sapiens); further: assay procedure not described here

>  <AC50>
> 30 µM

$$$$
>  <compound>
COc1cccc2c1C(=O)c1c(O)c3c(c(O)c1C2=O)C[C@@](O)(C(=O)CO)C[C@@H]3O[C@H]1C[C@H](N)[C@H](O)[C@H](C)O1

>  <system.name>
Alpha-2A adrenergic receptor (Homo sapiens); further: assay procedure not described here

>  <AC50>
> 30 µM

$$$$
>  <compound>
CC(C)NC[C@H](O)COc1ccc(CCOCC2CC2)cc1

>  <system.name>
Alpha-2A adrenergic receptor (Homo sapiens); further: assay procedure not described here

>  <AC50>
> 30 µM

$$$$

// batch mode: one AC50 value per listed entry
1. COc1cccc2c1C(=O)c1c(O)c3c(c(O)c1C2=O)C[C@@](O)(C(=O)CO)C[C@@H]3O[C@H]1C[C@H](N)[C@H](O[C@@H]2CCCCO2)[C@H](C)O1
2. COC(=O)Nc1nc2cc(C(=O)c3ccc(F)cc3)ccc2[nH]1
3. N=C(N)NC(=O)c1nc(Cl)c(N)nc1N [AMILORIDE]
4. Cc1cc(C)cc(OCC2CNC(=O)O2)c1 (stereo not given)
5. CCOc1ccc(Cc2nccc3cc(OCC)c(OCC)cc23)cc1OCC
6. CCn1c(=O)c2c(nc(/C=C/c3ccc(OC)c(OC)c3)n2C)n(CC)c1=O

(A)
1: > 30 µM; 2: > 30 µM; 3: > 30 µM; 4: > 30 µM; 5: 20.9 µM; 6: > 10 µM

Required: AC50, one value per compound below.
1. CO[C@@]1(NC(=O)C(C(=O)O)c2ccc(O)cc2)C(=O)N2C(C(=O)O)=C(CSc3nnnn3C)CO[C@@H]21 (stereo not given in full)
2. C=CCOc1ccc(CC(=O)O)cc1Cl
3. CC(C)(C)NCC(O)COc1ccccc1C#N (stereo not given)

(A)
> 30 µM
> 30 µM
27.1 µM

Respectfully, I request AC50 for each entry included below.
1. CC(C)NC[C@H](O)COc1ccc(O)cc1
2. NC(=O)N/N=C/c1ccc([N+](=O)[O-])o1
3. Cc1ccc(Cl)c(Nc2ccccc2C(=O)O)c1Cl
4. C[C@]12CC[C@@H]3c4ccc(OC(=O)N(CCCl)CCCl)cc4CC[C@H]3[C@@H]1CC[C@@H]2OP(=O)(O)O [ESTRAMUSTINE PHOSPHATE]
5. COc1cccc2c1C(=O)c1c(O)c3c(c(O)c1C2=O)C[C@@](O)(C(=O)CO)C[C@@H]3O[C@H]1C[C@H](N)[C@@H](O)[C@H](C)O1 [EPIRUBICIN]
6. O=P1(N(CCCl)CCCl)NCCCO1 (stereo not given) [CYCLOPHOSPHAMIDE ANHYDROUS]

(A)
["> 30 µM", "> 30 µM", "> 30 µM", "> 30 µM", "> 30 µM", "> 30 µM"]

For every listed record, write down its AC50.
1. COc1ccc(C(=O)c2ccccc2)c(O)c1
2. COC(=O)N(C)c1c(N)nc(-c2nn(Cc3ccccc3F)c3ncccc23)nc1N
3. CC(=O)Nc1ccc(/C=N/NC(N)=S)cc1
4. CC(C)N1CCN(c2ccc(OCC3COC(Cn4cncn4)(c4ccc(Cl)cc4Cl)O3)cc2)CC1 (stereo not given)
5. O=c1[nH]c2ccccc2n1CCN1CCN(c2cccc(C(F)(F)F)c2)CC1
6. CC1(C)S[C@@H]2[C@H](NC(=O)[C@H](NC(=O)c3cnc4cccnc4c3O)c3ccccc3)C(=O)N2[C@H]1C(=O)O

(A)
> 30 µM
> 30 µM
> 30 µM
2 µM
10.3 µM
> 30 µM

Please go through the list and note AC50 for each compound.
1. CN1CCc2c(c3ccccc3n2Cc2ccccc2)C1 [MEBHYDROLIN]
2. CC(=O)OC1CN2CCC1CC2 (stereo not given)
3. NCC1(CC(=O)O)CCCCC1

(A)
1: 0.533 µM; 2: > 30 µM; 3: > 30 µM

Below are 5 compounds. Give each one its AC50.
1. Cc1cnc(C(=O)O)c[n+]1[O-]
2. C[C@H](Nc1ncnc2[nH]cnc12)c1cc2cccc(Cl)c2c(=O)n1-c1ccccc1
3. CN(C)CCC=C1c2ccccc2CCc2ccccc21
4. CCOC1O[C@H]([C@@H](COCc2ccccc2)OCc2ccccc2)[C@H](OCc2ccccc2)[C@H]1O (stereo not given in full) [TRIBENOSIDE]
5. CC(=O)Oc1ccccc1C(=O)O

(A)
1: > 30 µM; 2: > 30 µM; 3: 1.27 µM; 4: > 30 µM; 5: > 30 µM

Working through the 3 compounds below one at a time, give AC50 for each.
1. CN1CCN(C(c2ccccc2)c2ccc(Cl)cc2)CC1 (stereo not given)
2. O=c1[nH]c(=O)n([C@H]2C[C@H](O)[C@@H](CO)O2)cc1/C=C/Br
3. COc1ncnc(NS(=O)(=O)c2ccc(N)cc2)c1OC

(A)
1: 3.1 µM; 2: > 30 µM; 3: > 30 µM

Source of measurements: ChEMBL document CHEMBL5291721
